KD pH 5.5/KD pH 7.4 by entry:
Tested system: T1, biotinylated native human ApoC3 (human, UniProt P02656 21-99, biotinylated (site not stated))
T1 construct: also called biotinylated human ApoC3
T1 sequence (P02656 21-99): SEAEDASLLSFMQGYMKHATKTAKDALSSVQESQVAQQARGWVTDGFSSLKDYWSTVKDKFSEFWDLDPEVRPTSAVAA
Experiment: SPR, scFv-Fc over biotinylated ApoC3 on SA chip
I'd appreciate a reply containing only the number, no unit.

>>> reported_value("5E5VHWT_VL8 scFv-Fc (scFv, part only; not given: Linker, domain order, Fc, V domains shown, not shown: another chain or arm of the molecule; a dimerising Fc or GST; small tags and cut ends) VH: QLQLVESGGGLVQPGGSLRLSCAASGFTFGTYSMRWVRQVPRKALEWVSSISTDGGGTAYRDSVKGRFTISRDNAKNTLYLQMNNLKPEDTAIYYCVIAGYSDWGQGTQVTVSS VL: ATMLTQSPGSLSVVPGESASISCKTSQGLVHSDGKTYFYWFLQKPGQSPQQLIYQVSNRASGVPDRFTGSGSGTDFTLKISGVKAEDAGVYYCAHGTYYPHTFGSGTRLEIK")
7.4
>>> reported_value("5E5WT scFv-Fc (scFv, part only; not given: Linker, domain order, Fc, V domains shown, not shown: another chain or arm of the molecule; a dimerising Fc or GST; small tags and cut ends) VH: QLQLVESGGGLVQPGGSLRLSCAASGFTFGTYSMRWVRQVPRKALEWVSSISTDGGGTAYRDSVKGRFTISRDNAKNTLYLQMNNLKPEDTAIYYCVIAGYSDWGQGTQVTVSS VL: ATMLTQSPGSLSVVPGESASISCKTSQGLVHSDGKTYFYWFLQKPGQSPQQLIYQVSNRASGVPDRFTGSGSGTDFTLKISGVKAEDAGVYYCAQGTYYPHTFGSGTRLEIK")
3

Below: the item to evaluate.
Give its KD pH 5.5/KD pH 7.4 value. Item: 5E5VH12_VLWT scFv-Fc (scFv, part only; not given: Linker, domain order, Fc, V domains shown, not shown: another chain or arm of the molecule; a dimerising Fc or GST; small tags and cut ends) VH: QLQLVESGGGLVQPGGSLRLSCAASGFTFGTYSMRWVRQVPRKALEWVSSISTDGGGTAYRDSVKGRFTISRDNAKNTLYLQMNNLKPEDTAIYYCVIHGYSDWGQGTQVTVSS VL: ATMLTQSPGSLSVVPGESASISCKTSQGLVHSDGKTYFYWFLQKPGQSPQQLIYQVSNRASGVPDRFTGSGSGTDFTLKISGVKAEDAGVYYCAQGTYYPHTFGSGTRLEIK
31.4
